# Measured on: FLT3 (Homo sapiens, UniProt P36888)
# Sequence (P36888 610-943 limits assumed): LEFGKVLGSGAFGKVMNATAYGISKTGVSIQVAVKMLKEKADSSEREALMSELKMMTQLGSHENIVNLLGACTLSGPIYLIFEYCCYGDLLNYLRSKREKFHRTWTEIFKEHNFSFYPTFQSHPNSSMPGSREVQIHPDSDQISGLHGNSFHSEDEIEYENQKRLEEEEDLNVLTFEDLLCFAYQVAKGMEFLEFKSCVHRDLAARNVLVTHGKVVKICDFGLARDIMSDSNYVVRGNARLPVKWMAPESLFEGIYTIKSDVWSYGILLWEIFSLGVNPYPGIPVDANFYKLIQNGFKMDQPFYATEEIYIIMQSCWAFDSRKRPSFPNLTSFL
# Assay comment: RBC HotSpot Kinase Assay, FLT3
# Experimental setup: FLT3 IC50
pIC50: −log10 of the molar value.
# pIC50 per entry
Measurement type: pIC50

- Compound: "COc1cc2ncc(-c3ccnc(N[C@H]4CNCC[C@@H]4F)n3)n2cc1C(C)(C)O [Compound 45]"
  Measured on: "FLT3 (Homo sapiens, UniProt P36888)"
  Val: "> 9.30"
- Compound: "O=C1CCCN1c1cn2c(-c3ccnc(N[C@@H]4CCCNC4)n3)cnc2cn1 [Compound 47]"
  Measured on: "FLT3 (Homo sapiens, UniProt P36888)"
  Val: "> 9.30"
- Compound: "COc1cc2ncc(-c3cncc(N[C@H]4CNC[C@@H]4F)n3)n2nc1C(C)(O)C(F)(F)F (single isomer, unassigned) [Compound 81]"
  Measured on: "FLT3 (Homo sapiens, UniProt P36888)"
  Val: 8.10
- Compound: "FC(F)Oc1ccn2c(-c3cncc(N[C@@H]4CCCNC4)n3)cnc2c1 [Compound 14]"
  Measured on: "FLT3 (Homo sapiens, UniProt P36888)"
  Val: 9.10
- Compound: "FC(F)COc1ccn2c(-c3ccnc(N[C@@H]4CCCNC4)n3)cnc2c1 [Compound 32]"
  Measured on: "FLT3 (Homo sapiens, UniProt P36888)"
  Val: "> 9.30"
- Compound: "O=C1CCCN1c1cn2c(-c3ccnc(N[C@H]4CNCC[C@@H]4F)n3)cnc2cn1 [Compound 48]"
  Measured on: "FLT3 (Homo sapiens, UniProt P36888)"
  Val: "> 9.30"
- Compound: "COc1ccn2c(-c3ccnc(N[C@H]4CNC[C@@H]4F)n3)cnc2c1 [Compound 28]"
  Measured on: "FLT3 (Homo sapiens, UniProt P36888)"
  Val: "> 9.30"
- Compound: "COc1ccn2c(-c3cncc(N[C@@H]4CCCNC4)n3)cnc2c1 [Compound 5]"
  Measured on: "FLT3 (Homo sapiens, UniProt P36888)"
  Val: "> 9.30"
- Compound: "COc1cc2ncc(-c3cncc(N[C@H]4CNC[C@@H]4F)n3)n2nc1C1CC1 [Compound 22]"
  Measured on: "FLT3 (Homo sapiens, UniProt P36888)"
  Val: "> 9.30"
- Compound: "FC(F)COc1ccn2c(-c3cncc(N[C@H]4CNC[C@@H]4F)n3)cnc2c1 [Compound 7]"
  Measured on: "FLT3 (Homo sapiens, UniProt P36888)"
  Val: "> 9.30"
- Compound: "CC(C)Oc1ccn2c(-c3cncc(N[C@@H]4CCCNC4)n3)cnc2c1 [Compound 1]"
  Measured on: "FLT3 (Homo sapiens, UniProt P36888)"
  Val: "> 9.30"
- Compound: "FC(F)Oc1ccn2c(-c3ccnc(N[C@@H]4CCCNC4)n3)cnc2c1 [Compound 35]"
  Measured on: "FLT3 (Homo sapiens, UniProt P36888)"
  Val: "> 9.30"
- Compound: "c1cc(-c2cnc3cc(OC4CC4)ccn23)nc(N[C@@H]2CCCNC2)n1 [Compound 38]"
  Measured on: "FLT3 (Homo sapiens, UniProt P36888)"
  Val: "> 9.30"
- Compound: "CC(O)(c1cn2c(-c3cncc(N[C@H]4CNC[C@@H]4F)n3)cnc2cn1)C(F)(F)F (single isomer, unassigned) [Compound 75]"
  Measured on: "FLT3 (Homo sapiens, UniProt P36888)"
  Val: 8.05
- Compound: "F[C@H]1CCNC[C@@H]1Nc1nccc(-c2cnc3cc(OC4CC4)ccn23)n1 [Compound 39]"
  Measured on: "FLT3 (Homo sapiens, UniProt P36888)"
  Val: "> 9.30"
- Compound: "CC(C)(O)c1ccc2ncc(-c3ccnc(N[C@@H]4CCCNC4)n3)n2c1 [Compound 41]"
  Measured on: "FLT3 (Homo sapiens, UniProt P36888)"
  Val: 9.00
- Compound: "FC(F)Oc1ccn2c(-c3cncc(N[C@H]4CNCC[C@@H]4F)n3)cnc2c1 [Compound 15]"
  Measured on: "FLT3 (Homo sapiens, UniProt P36888)"
  Val: "> 9.30"
- Compound: "CC(C)(O)c1ccc2ncc(-c3cncc(N[C@@H]4CCCNC4)n3)n2c1 [Compound 17]"
  Measured on: "FLT3 (Homo sapiens, UniProt P36888)"
  Val: 8.30

Reference for the values: patent US20250154144A1
